# System: Candida tropicalis
# ASSAY EXPLANATION: Inhibition of Candida tropicalis ATCC 750 chitin synthase at 300 ug/ml using UDP-GlcNAc as substrate relative to control
# CONDITION SUMMARY: dose 300.0 µg/ml
Mark condition not met for inhibition values under 50%, and condition met for everything at or above.

*Q* Decide: inhibition of O=C(/C=C/C(=O)NC1Cc2ccccc2NC1=O)Nc1cccc(Br)c1 (stereo not given) >= 50%?
*A* condition not met

*Q* Reported inhibition at or above 50%? O=C(/C=C/C(=O)NC1Cc2ccccc2NC1=O)Nc1ccccc1[N+](=O)[O-] (stereo not given)
*A* condition met

*Q* # check: inhibition of COc1ccccc1NC(=O)/C=C/C(=O)NC1Cc2ccccc2NC1=O (stereo not given) is greater than or equal to 50%
*A* condition met

*Q* # check: inhibition of O=C(/C=C/C(=O)NC1Cc2ccccc2NC1=O)Nc1ccccc1Cl (stereo not given) is greater than or equal to 50%
*A* condition not met

* * *

What MIC was measured for each of the following?
# System: Pseudomonas aeruginosa
# ASSAY EXPLANATION: Antibacterial activity against Pseudomonas aeruginosa ATCC 9027
# Type: functional

*Q* Returns the measured MIC for the input compound. Input: O=C(/C=C/C(=O)NC1Cc2ccccc2NC1=O)Nc1ccc(Cl)cc1 (centres undefined)
*A* 512 µg/mL

*Q* // query MIC value for entry O=C(/C=C/C(=O)NC1Cc2ccccc2NC1=O)Nc1ccc(F)c(F)c1 (centres undefined)
*A* 512 µg/mL

*Q* Bench note: what MIC did O=C(/C=C/C(=O)NC1Cc2ccccc2NC1=O)Nc1cccc(Br)c1 (centres undefined) show?
*A* 256 µg/mL

*Q* Which MIC value is on record for `CN[C@@H]1[C@H](O[C@H]2[C@H](O[C@H]3[C@H](O)[C@@H](O)[C@H](N=C(N)N)[C@@H](O)[C@@H]3N=C(N)N)O[C@@H](C)[C@]2(O)C=O)O[C@@H](CO)[C@H](O)[C@H]1O` ?
*A* 8 µg/mL

* * *

# Tested on: Candida tropicalis
# ASSAY EXPLANATION: Inhibition of Candida tropicalis ATCC 750 chitin synthase at 300 ug/ml using UDP-GlcNAc as substrate relative to control
# CONDITION SUMMARY: dose 300.0 µg/ml
For each entry below, report its inhibition value.
Enter your answer as a number in %; do not include the unit.

*Q* Record request: inhibition value, item O=C(/C=C/C(=O)NC1Cc2ccccc2NC1=O)Nc1cccc([N+](=O)[O-])c1 (stereo not drawn)
*A* 49.3

*Q* Fill in the blank: the reported inhibition of O=C(/C=C/C(=O)NC1Cc2ccccc2NC1=O)Nc1ccc(F)cc1 (stereo not drawn) is ____.
*A* 51.2

*Q* Fill blank: measured inhibition of the compound O=C(/C=C/C(=O)NC1Cc2ccccc2NC1=O)Nc1ccc(Cl)cc1 (stereo not drawn) is ____.
*A* 50.5

* * *

# Test system: Staphylococcus aureus
# ASSAY EXPLANATION: Antibacterial activity against Staphylococcus aureus ATCC 25923
# Assay type: functional
Give MIC for every item shown.
State the value, then name its unit.

*Q* Returns the measured MIC for the input molecule. Input: O=C(/C=C/C(=O)NC1Cc2ccccc2NC1=O)Nc1ccccc1Cl (stereo not given)
*A* 128 µg/mL

*Q* Which measured MIC value corresponds to COc1ccc(NC(=O)/C=C/C(=O)NC2Cc3ccccc3NC2=O)cc1 (stereo not given) ?
*A* 128 µg/mL

*Q* Looking for the measured MIC of Cc1ccccc1NC(=O)/C=C/C(=O)NC1Cc2ccccc2NC1=O (stereo not given) , can you help?
*A* 128 µg/mL

*Q* Return reported MIC; argument: O=C(/C=C/C(=O)NC1Cc2ccccc2NC1=O)Nc1cccc2ccccc12 (stereo not given)
*A* 256 µg/mL

*Q* Need MIC of Cc1cccc(NC(=O)/C=C/C(=O)NC2Cc3ccccc3NC2=O)c1 (stereo not given) , thanks.
*A* 128 µg/mL

*Q* Can you look up the measured MIC of O=C(/C=C/C(=O)NC1Cc2ccccc2NC1=O)Nc1ccc(Br)cc1 (stereo not given) for me?
*A* 128 µg/mL

*Q* Bench note: what MIC did O=C(/C=C/C(=O)NC1Cc2ccccc2NC1=O)Nc1ccccc1[N+](=O)[O-] (stereo not given) show?
*A* 128 µg/mL

*Q* So what does the record say about MIC for O=C(/C=C/C(=O)NC1Cc2ccccc2NC1=O)Nc1cccc(Br)c1 (stereo not given) ?
*A* 128 µg/mL

*Q* Quick check: MIC of O=C(/C=C/C(=O)NC1Cc2ccccc2NC1=O)Nc1ccccc1F (stereo not given) ?
*A* 256 µg/mL

*Q* # get_value(readout='MIC', item= O=C(/C=C/C(=O)NC1Cc2ccccc2NC1=O)Nc1ccccc1 (stereo not given) )
*A* 256 µg/mL

*Q* # MIC lookup, item O=C(/C=C/C(=O)NC1Cc2ccccc2NC1=O)Nc1cccc([N+](=O)[O-])c1 (stereo not given)
*A* 128 µg/mL

*Q* Reported MIC, molecule O=C(/C=C/C(=O)NC1Cc2ccccc2NC1=O)Nc1ccccc1Br (stereo not given) : ____
*A* 128 µg/mL

*Q* Bench note: what MIC did Cc1cc(C)cc(NC(=O)/C=C/C(=O)NC2Cc3ccccc3NC2=O)c1 (stereo not given) show?
*A* 128 µg/mL

*Q* Reported MIC, molecule COc1ccccc1NC(=O)/C=C/C(=O)NC1Cc2ccccc2NC1=O (stereo not given) : ____
*A* 128 µg/mL

*Q* Give its MIC value. Item: Cc1ccc(NC(=O)/C=C/C(=O)NC2Cc3ccccc3NC2=O)cc1 (stereo not given)
*A* 128 µg/mL
